# Test system: RAW-Dual (murine macrophage reporter line)
# experiment_description: IRF reporter (Lucia luciferase) activity fold change vs agonist alone; higher = enhanced IRF activity
# condition_notes: modulator concentration 10 µM; agonist: LPS 0.1 ug/mL
reported_metric: IRF reporter

| compound | study_target | data_value |
| --- | --- | --- |
| CC(=O)N1CC(c2ccc(OC(C)C)cc2)CC1=O (stereo not drawn) | RAW-Dual (murine macrophage reporter line) | 1.22 |
| CC(C)Cn1c(=O)n(C)c(=O)c2[nH]cnc21 | RAW-Dual (murine macrophage reporter line) | 0.88 |
| CCOc1ccccc1NC(=O)NCc1sc(-c2ccccc2Cl)nc1C | RAW-Dual (murine macrophage reporter line) | 0.926 |
| O=C(NCCNC(=O)c1ccccc1Cl)c1ccc(NC(=O)C2CC2)cc1 | RAW-Dual (murine macrophage reporter line) | 1.36 |
| CCN1C(=O)C(=Cc2cc(Br)ccc2OCCOc2ccccc2Cl)SC1=S | RAW-Dual (murine macrophage reporter line) | 1.14 |
| Cc1cc(CCNC(=O)c2cc3ccccc3s2)nn1C | RAW-Dual (murine macrophage reporter line) | 1.03 |
| O=C(CCC1CCCC1)Nc1cccc(F)c1 | RAW-Dual (murine macrophage reporter line) | 1.03 |
| CCC(C(=O)N1CC(Nc2cnccn2)C1)c1ccccc1 (stereo not drawn) | RAW-Dual (murine macrophage reporter line) | 1.24 |
| Cc1ccc(-n2ncc3c(Nc4cccc(C)c4)ncnc32)cc1 | RAW-Dual (murine macrophage reporter line) | 1.09 |
| Cn1cnc2cc(NCc3ccc(Br)cc3)ccc21 | RAW-Dual (murine macrophage reporter line) | 1.06 |
| O=C(C1=C(O)C(=O)N(c2nccs2)C1c1ccccc1)c1cc2ccccc2o1 (stereo not drawn) | RAW-Dual (murine macrophage reporter line) | 0.967 |
| COc1ccc(-c2noc(-c3ccc(=O)n(Cc4ncc(C)c(OC)c4C)c3)n2)cc1F | RAW-Dual (murine macrophage reporter line) | 1.17 |
| COC(CNC(=O)C(C)(C)Oc1ccc(Cl)cc1)c1cccc(F)c1 (stereo not drawn) | RAW-Dual (murine macrophage reporter line) | 0.959 |
| CCc1cccc(C)c1NC(=O)C(C)(C)CC | RAW-Dual (murine macrophage reporter line) | 0.988 |
| CCN(CC)c1ccc(C=C(C#N)c2n[nH]c(N)c2C#N)c(OC)c1 | RAW-Dual (murine macrophage reporter line) | 0.865 |
| CNC(=O)c1ccc2cc(C3(O)CCn4cncc43)ccc2c1 (stereo not drawn) | RAW-Dual (murine macrophage reporter line) | 0.964 |
| CNS(=O)(=O)C[C@H]1CC[C@H](N(C)c2ncnc3[nH]ccc23)CC1.O=C(O)/C=C\C(=O)O | RAW-Dual (murine macrophage reporter line) | 0.269 |
| Cl.O[C@@H](c1cc(C(F)(F)F)nc2c(C(F)(F)F)cccc12)[C@H]1CCCCN1 | RAW-Dual (murine macrophage reporter line) | 1.04 |
| Clc1ccc2c(c1)CCc1cccnc1C2=C1CCNCC1 | RAW-Dual (murine macrophage reporter line) | 0.81 |
| COC(=O)C1C(=O)C(=CNc2ccccc2O)C(=O)CC1(C)C (stereo not drawn) | RAW-Dual (murine macrophage reporter line) | 1.19 |
| O=C(Nc1ccc([N+](=O)[O-])cc1Cl)c1cccnc1 | RAW-Dual (murine macrophage reporter line) | 1.06 |
| N[C@@H](Cc1cc(I)c(Oc2cc(I)c(O)c(I)c2)c(I)c1)C(=O)O | RAW-Dual (murine macrophage reporter line) | 1.15 |
| O=C(CCCc1ccccc1)NCC1(O)CCCC1 | RAW-Dual (murine macrophage reporter line) | 0.977 |
